Observed pIC50 for Glycogen synthase kinase-3 alpha (Homo sapiens), reported per entry below.
pIC50: −log10 of the molar value.

Past entries and their recorded results:
O=C1NN=C(c2ccc(Br)cc2)/C(=N/Nc2ccccc2)C1=O
< 5.00
CCOC(=O)c1[nH]nc(-c2ccc(Cl)cc2)c1N
< 5.00

Prompt: Notebook entry, Glycogen synthase kinase-3 alpha (Homo sapiens) assay: pIC50 of "O=c1[nH]cnc2c(-c3ccc(Br)cc3)n[nH]c12" = ?
Response: < 5.00

###

Target: Cyclin-dependent kinase 5/CDK5 activator 1 (Homo sapiens)
Sequence (Q00535 whole entry): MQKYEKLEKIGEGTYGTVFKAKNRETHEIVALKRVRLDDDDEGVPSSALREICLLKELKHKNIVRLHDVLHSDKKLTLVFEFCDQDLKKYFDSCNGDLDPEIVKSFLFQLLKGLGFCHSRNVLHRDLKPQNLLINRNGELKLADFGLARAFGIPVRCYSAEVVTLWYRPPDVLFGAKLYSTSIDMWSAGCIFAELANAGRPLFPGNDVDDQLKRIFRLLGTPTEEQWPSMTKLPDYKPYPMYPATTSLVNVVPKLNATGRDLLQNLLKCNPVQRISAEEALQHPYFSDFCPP
Sequence (Q15078 whole entry, further chain): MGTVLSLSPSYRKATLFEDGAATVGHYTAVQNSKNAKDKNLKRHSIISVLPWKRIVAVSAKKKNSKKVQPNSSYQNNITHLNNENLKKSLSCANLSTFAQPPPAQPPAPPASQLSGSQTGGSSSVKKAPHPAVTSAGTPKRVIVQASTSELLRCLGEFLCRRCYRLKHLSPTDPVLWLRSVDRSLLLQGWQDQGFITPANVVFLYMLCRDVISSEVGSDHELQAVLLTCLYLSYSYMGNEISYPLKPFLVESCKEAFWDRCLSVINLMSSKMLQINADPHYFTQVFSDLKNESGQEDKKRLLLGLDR
Assay: Inhibition of CDK5/p25 (unknown origin) using histone H1 as substrate and [gamma-33P]-ATP after 10 min
MEASURED ATTRIBUTE: IC50

Prompt: Notebook entry, Cyclin-dependent kinase 5/CDK5 activator 1 (Homo sapiens) assay: IC50 of "CCOC(=O)C(=O)/C(=N\Nc1ccccc1)C(=O)c1ccccc1" = ?
Response: > 10 µM

Prompt: Notebook entry, Cyclin-dependent kinase 5/CDK5 activator 1 (Homo sapiens) assay: IC50 of "CCOc1ccc(S(=O)(=O)N2CCOCC2)cc1-c1nc2ncccc2c(=O)[nH]1" = ?
Response: > 10 µM

Prompt: Notebook entry, Cyclin-dependent kinase 5/CDK5 activator 1 (Homo sapiens) assay: IC50 of "CCOC(=O)c1[nH]nc(-c2ccc(F)cc2)c1/N=N/c1ccccc1" = ?
Response: > 10 µM

Prompt: Notebook entry, Cyclin-dependent kinase 5/CDK5 activator 1 (Homo sapiens) assay: IC50 of "CCOc1ccc(S(=O)(=O)N2CCN(c3ccccc3)CC2)cc1-c1nc2ncccc2c(=O)[nH]1" = ?
Response: > 10 µM

Prompt: Notebook entry, Cyclin-dependent kinase 5/CDK5 activator 1 (Homo sapiens) assay: IC50 of "CCOC(=O)C(=O)/C(=N\Nc1ccccc1)C(=O)c1ccc(Cl)cc1" = ?
Response: > 10 µM

Measured values drawn from ChEMBL document CHEMBL3046637 for this set.
